Catalogue of inhibition readings, one per entry.
# Measurement Target: Dual specificity protein phosphatase 1 (Homo sapiens)
# Experiment Notes: MKP-1 phosphatase inhibitors, primary screen, biochemical, in vitro (AID 374);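 further: 0% = DMSO max control wells and 100% = wells with enzyme stopped by NaOH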
# Measurement Parameters: recombinant MKP-1, OMFP hydrolysis fluorescence; stronger effect = higher value;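 compounds tested at a single concentration somewhere between 10 and 100 µM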
Among all 65,000 compounds or so, about 100 (0.15%) were called active. The full list was thinned out, with actives kept by preference.
The reply should be a number in %, with the unit left off.

COC(C)(C)[C@]12CC(O)(C(C)C)ON1[C@H]1CCCCC1N2O (stereo not given in full) :: -23.5

Result for CCOC(=O)N1CCN(C(=O)c2ccc(CN(c3ccc(C)c(C)c3)S(C)(=O)=O)cc2)CC1 , tested on Dual specificity protein phosphatase 1 (Homo sapiens), inhibition: 6.83

Summary: CC(C)Cn1c(CCC(=O)O)ccc1-c1cccs1 , Dual specificity protein phosphatase 1 (Homo sapiens), inhibition = -3.65

###

# Measurement Target: Dual specificity protein phosphatase 1 (Homo sapiens) (UniProt P28562)
# Sequence (P28562 whole entry, looked up): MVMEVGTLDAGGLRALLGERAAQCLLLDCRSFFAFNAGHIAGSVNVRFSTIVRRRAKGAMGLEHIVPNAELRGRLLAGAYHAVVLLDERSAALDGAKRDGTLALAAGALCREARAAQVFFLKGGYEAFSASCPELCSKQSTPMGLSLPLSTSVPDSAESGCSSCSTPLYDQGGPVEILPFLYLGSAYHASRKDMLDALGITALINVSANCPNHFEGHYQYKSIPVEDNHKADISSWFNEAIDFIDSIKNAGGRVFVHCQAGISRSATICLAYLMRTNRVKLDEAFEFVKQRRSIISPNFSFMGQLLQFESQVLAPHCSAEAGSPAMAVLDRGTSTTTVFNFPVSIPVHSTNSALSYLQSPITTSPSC
# Experiment Notes: MKP-1 phosphatase inhibitors, primary screen, biochemical, in vitro (AID 374);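 further: 0% = DMSO max control wells and 100% = wells with enzyme stopped by NaOH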
# Measurement Parameters: recombinant MKP-1, OMFP hydrolysis fluorescence; stronger effect = higher value;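 compounds tested at a single concentration somewhere between 10 and 100 µM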
Among all 65,000 compounds or so, about 100 (0.15%) were called active. For the sample, actives were picked, then their nearest neighbours and some compounds at random.
// label = Fulfilled if inhibition is not less than 10%, otherwise Not fulfilled

O=C(Nc1cnccn1)c1cccnc1 :: Fulfilled
CCCCOC(=O)c1[nH]c(C)c(C(=O)OC)c1C :: Not fulfilled

Proceed to the following item.
Query block: inhibition >= 10% for Fc1ccc(OCc2nn3c(Cn4nnc5ccccc54)nnc3s2)cc1 ?
Result block: Fulfilled

###

# Measurement Target: Dual specificity protein phosphatase 1 (Homo sapiens) (UniProt P28562)
# Experiment Notes: MKP-1 phosphatase inhibitors, primary screen, biochemical, in vitro (AID 374);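 further: 0% = DMSO max control wells and 100% = wells with enzyme stopped by NaOH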
# Measurement Parameters: recombinant MKP-1, OMFP hydrolysis fluorescence; stronger effect = higher value;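 compounds tested at a single concentration somewhere between 10 and 100 µM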
Out of some 65,000 compounds screened, about 100 (0.15%) were called active. The full list was thinned out, with actives kept by preference.
Value Kind: inhibition (%)
State the answer as a number, implicitly in %.

// worked examples, inhibition included
Cn1c(CNC(=O)C(C)(C)C)nc2ccccc21 :: 4.69
CC(C)(C)n1c(=O)[nH]c2c(c1=O)CCC2 :: 21.8

Lab note: CCC(C(=O)Nc1ncccn1)(C(F)(F)F)C(F)(F)F gave inhibition of -11.8

The reported value for O=S(=O)(c1cccs1)N1CCc2ccccc2C1 in terms of inhibition is 1.16

Kindly note the recorded inhibition for CCCCNC(=O)CSc1nnc(-c2ccco2)n1C , which is 93.8

The compound listed as CCC(=O)Nc1ccccc1N1CCN(S(C)(=O)=O)CC1 has a reported inhibition of 6.41

Per the record, CC(=O)N(CN1C(=O)C2CC=CCC2C1=O)c1cccc(Cl)c1 (stereo unspecified) has inhibition of 4.23

###

# Measurement Target: Dual specificity protein phosphatase 1 (Homo sapiens)
# Experiment Notes: MKP-1 phosphatase inhibitors, primary screen, biochemical, in vitro (AID 374);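 further: 0% = DMSO max control wells and 100% = wells with enzyme stopped by NaOH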
# Measurement Parameters: recombinant MKP-1, OMFP hydrolysis fluorescence;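 compounds tested at a single concentration somewhere between 10 and 100 µM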
Hit rate of the full screen: of about 65,000 compounds, about 100 (0.15%) were called active.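 The calls were made as follows: active = inhibition above about 50% (limit read from the data); inconclusive = inhibition over screen mean plus 3 SD, below that limit; inactive = the rest.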 The sample holds actives, similar compounds and a random draw of the others, so the mix is not that of the screen.
Select the correct class. Options are active, inactive and nothing else.

Cn1c(=O)c2c(nc(OCc3cccnc3)n2Cc2ccccc2)n(C)c1=O :: inactive
CCCCn1c(SCC(=O)NCC2CCCO2)nc2ccc(N3CCOCC3)cc2c1=O (configuration not stated) :: inactive
Cc1ccc(-c2noc(CSc3nnnn3-c3ccccc3)n2)cc1 :: inactive

Query block: Query: recorded result category for COc1ccccc1-n1cnc2cc(NS(=O)(=O)c3ccccc3)ccc21 in this test
Result block: inactive
